target: 5-hydroxytryptamine receptor 2A (Homo sapiens); test: Displacement of [3H]ketanserin from human recombinant 5HT2A receptor expressed in HEK293-EBNA cells
Sequence (P28223 whole entry): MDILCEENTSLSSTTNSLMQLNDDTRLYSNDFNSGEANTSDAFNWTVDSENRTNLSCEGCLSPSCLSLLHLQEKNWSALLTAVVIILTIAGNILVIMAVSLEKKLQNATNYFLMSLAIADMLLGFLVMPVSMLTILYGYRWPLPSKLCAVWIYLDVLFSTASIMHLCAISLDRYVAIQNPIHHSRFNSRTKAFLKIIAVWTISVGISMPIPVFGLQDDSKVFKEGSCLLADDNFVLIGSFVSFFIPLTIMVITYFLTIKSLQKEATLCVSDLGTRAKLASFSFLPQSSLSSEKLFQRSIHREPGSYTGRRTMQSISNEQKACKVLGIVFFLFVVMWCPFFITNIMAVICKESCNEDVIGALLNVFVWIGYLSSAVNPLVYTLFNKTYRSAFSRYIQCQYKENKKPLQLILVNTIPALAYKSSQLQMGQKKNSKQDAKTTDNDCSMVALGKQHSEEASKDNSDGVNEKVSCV
Parameter measured: Ki

Smi: NC1=Nc2cccc(Cl)c2CN1
Ki: 1160 nM

Challenge: Request the reported Ki associated with "NC1=Nc2ccc(Cl)c(Cl)c2CN1"
Response given: 434 nM

###

molecular target: Histamine H1 receptor (Homo sapiens, UniProt P35367)
Sequence (P35367 whole entry): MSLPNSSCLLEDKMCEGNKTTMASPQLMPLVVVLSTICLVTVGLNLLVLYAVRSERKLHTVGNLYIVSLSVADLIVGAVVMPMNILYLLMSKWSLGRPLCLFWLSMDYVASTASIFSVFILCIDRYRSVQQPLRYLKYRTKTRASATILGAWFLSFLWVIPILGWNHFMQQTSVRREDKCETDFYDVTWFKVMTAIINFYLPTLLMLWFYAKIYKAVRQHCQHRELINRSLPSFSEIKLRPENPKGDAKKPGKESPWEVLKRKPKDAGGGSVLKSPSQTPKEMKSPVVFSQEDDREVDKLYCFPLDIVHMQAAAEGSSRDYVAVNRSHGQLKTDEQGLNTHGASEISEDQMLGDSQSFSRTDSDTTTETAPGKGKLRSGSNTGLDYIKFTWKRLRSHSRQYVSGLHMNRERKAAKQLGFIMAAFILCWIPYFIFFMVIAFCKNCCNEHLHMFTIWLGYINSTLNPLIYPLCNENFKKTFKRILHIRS
Parameter measured: Ki (nM)
Please respond with the number in nM and leave the unit unwritten.

Challenge: Request the reported Ki associated with CC1NC(N)=Nc2ccc(Cl)c(Cl)c21 (stereo unspecified)
Response given: 8

###

target: 5-hydroxytryptamine receptor 5A (Homo sapiens, UniProt P47898); assay: Displacement of [3H]LSD from human recombinant 5HT5A receptor expressed in HEK293-EBNA cells; format: cell-based
Sequence (P47898 whole entry): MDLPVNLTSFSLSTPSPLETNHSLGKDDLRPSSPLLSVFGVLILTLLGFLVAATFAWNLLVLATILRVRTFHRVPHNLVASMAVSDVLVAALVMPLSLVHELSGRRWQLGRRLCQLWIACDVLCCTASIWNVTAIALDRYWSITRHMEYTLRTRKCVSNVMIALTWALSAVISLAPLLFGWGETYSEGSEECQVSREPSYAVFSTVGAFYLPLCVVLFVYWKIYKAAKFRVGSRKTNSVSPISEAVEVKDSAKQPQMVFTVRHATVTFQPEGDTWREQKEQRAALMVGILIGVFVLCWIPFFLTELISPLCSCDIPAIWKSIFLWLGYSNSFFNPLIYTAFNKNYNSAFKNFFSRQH
pKi: −log10 of the molar value.
Short version: pKi at least 7 is TRUE, less is FALSE.

Completed entries (count: 5):
Compound: NC1=Nc2cccc(F)c2CN1
Label class: FALSE

Compound: Cc1ccc2c(c1)CNC(N)=N2
Label class: FALSE

Compound: COc1ccc2c(c1)N=C(N)NC2
Label class: FALSE

Compound: CN(C)C1=Nc2ccccc2CN1
Label class: FALSE

Compound: NC1=Nc2ccc(Cl)c(Cl)c2CN1
Label class: TRUE

Challenge: Item "NC1=Nc2cc(F)ccc2CN1" with pKi of 7 or above?
Response given: FALSE

Challenge: Entry to check: CC1NC(N)=Nc2c(Cl)ccc(Cl)c21 (stereo unspecified)
Response given: TRUE

Challenge: Entry to check: "CN1Cc2ccccc2N=C1N"
Response given: FALSE

Challenge: Entry to check: CC1NC(N)=Nc2ccccc21 (stereo unspecified)
Response given: TRUE

Challenge: Entry to check: "NC1=Nc2c(Cl)cccc2CN1"
Response given: FALSE

###

molecular target: 5-hydroxytryptamine receptor 7 (Homo sapiens); assay: Displacement of [3H]LSD from human recombinant 5HT7 receptor expressed in HEK293-EBNA cells
Sequence (P34969 whole entry): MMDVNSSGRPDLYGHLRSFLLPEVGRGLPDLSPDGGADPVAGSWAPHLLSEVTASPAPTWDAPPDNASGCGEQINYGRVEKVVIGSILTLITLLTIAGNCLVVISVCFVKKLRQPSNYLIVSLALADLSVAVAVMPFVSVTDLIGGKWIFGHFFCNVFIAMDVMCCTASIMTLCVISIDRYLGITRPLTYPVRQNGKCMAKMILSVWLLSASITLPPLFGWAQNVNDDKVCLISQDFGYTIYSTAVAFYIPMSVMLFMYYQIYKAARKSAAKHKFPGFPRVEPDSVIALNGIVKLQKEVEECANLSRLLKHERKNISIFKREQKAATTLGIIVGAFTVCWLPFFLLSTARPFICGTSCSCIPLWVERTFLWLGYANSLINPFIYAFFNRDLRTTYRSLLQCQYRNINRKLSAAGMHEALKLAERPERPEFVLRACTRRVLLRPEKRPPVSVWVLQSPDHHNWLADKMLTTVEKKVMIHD
Hi! Could you tag entries with Ki below 9 nM as Criterion met, and those at or above as Criterion not met? Much appreciated.

Completed entries (count: 2):
Compound: CC1NC(N)=Nc2c(Cl)ccc(Cl)c21 (centres undefined)
Label class: Criterion met

Compound: NC1=Nc2ccc(Cl)c(Cl)c2CN1
Label class: Criterion not met

Challenge: Regarding CC1NC(N)=Nc2ccc(Cl)c(Cl)c21 (centres undefined) , kindly confirm whether its Ki is beneath 9 nM.
Response given: Criterion met

Challenge: Entry to check: COc1c(Cl)ccc2c1C(C)NC(N)=N2 (centres undefined)
Response given: Criterion not met

Challenge: Entry to check: CC(C)Oc1cccc2c1N=C(N)NC2C (centres undefined)
Response given: Criterion met

Challenge: Entry to check: CNC1=Nc2cccc(Cl)c2C(C)N1 (centres undefined)
Response given: Criterion not met

Challenge: Entry to check: CNC1=Nc2ccc(Cl)c(Cl)c2C(C)N1 (centres undefined)
Response given: Criterion not met

Challenge: Entry to check: CCC1NC(N)=Nc2cccc(Cl)c21 (centres undefined)
Response given: Criterion not met

Challenge: Entry to check: "NC1=Nc2cccc(Cl)c2CN1"
Response given: Criterion not met

Challenge: Entry to check: COc1cc(Cl)c(C)c2c1N=C(N)NC2C (centres undefined)
Response given: Criterion met

Challenge: Entry to check: CCC1NC(N)=Nc2ccc(Cl)c(Cl)c21 (centres undefined)
Response given: Criterion not met

Challenge: Entry to check: COc1cccc2c1N=C(N)NC2C (centres undefined)
Response given: Criterion met

Challenge: Entry to check: CNC1=Nc2c(OC(C)C)cccc2C(C)N1 (centres undefined)
Response given: Criterion met

Challenge: Entry to check: CC1NC(N)=Nc2cccc(Cl)c21 (centres undefined)
Response given: Criterion not met
